Attribution: PubChem BioAssay AID1963868

Tested on: KRAS PDC tumor spheroids (HUVEC+MSC), viability;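 note: spheroids exposed to compounds for seven days before readout; 100% = DMSO vehicle control luminescence of the spheroids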
Test: Anticancer human tumor 254851-301-R-J1-PDC patient-derived colon carcinoma cell line growth inhibition [KRAS2]
Settings: second compound 0.1 µM; first compound 0.000316 µM; stronger effect = lower value
Experimental Endpoint: viability, T/C (%)
Give bare numbers, in %.

Worked set:
Molecule	Observed Measurement
Cn1ncnc1[C@H]1c2n[nH]c(=O)c3cc(F)cc(c23)N[C@@H]1c1ccc(F)cc1 + COc1cc2nc(C)nc(NC(C)c3cc(N)cc(C(F)(F)F)c3)c2cc1OC1CCOC1	111
CC(=O)Nc1cccc(-n2c(=O)n(C3CC3)c(=O)c3c(Nc4ccc(I)cc4F)n(C)c(=O)c(C)c32)c1 + COc1cc2nc(C)nc(NC(C)c3cc(N)cc(C(F)(F)F)c3)c2cc1OC1CCOC1	97.8
CC(C)n1nc(-c2ccc3oc(N)nc3c2)c2c(N)ncnc21 + CC1OCC2(CCN(c3cnc(Sc4ccnc(N)c4Cl)c(N)n3)CC2)C1N	103

Batch of 2 molecules: report viability, T/C for each.
1. CC(=O)Nc1cccc(-n2c(=O)n(C3CC3)c(=O)c3c(Nc4ccc(I)cc4F)n(C)c(=O)c(C)c32)c1 + C=CC(=O)N1CCN(c2nc(OCC3CCCN3C)nc3c2CCN(c2cccc4cccc(C)c24)C3)CC1CC#N
2. Cn1ncnc1[C@H]1c2n[nH]c(=O)c3cc(F)cc(c23)N[C@@H]1c1ccc(F)cc1 + C=CC(=O)N1CCN(c2nc(OCC3CCCN3C)nc3c2CCN(c2cccc4cccc(C)c24)C3)CC1CC#N

RESULT:
1: 106; 2: 107
